Where these numbers come from: PubChem BioAssay

- STUDY SYSTEM: Carbonic anhydrase 2 (Homo sapiens)
- ASSAY: compounds binding carbonic anhydrase 2 – biochemical, small-molecule microarray, Alexa647-labelled CAII, profiling panel (AID 1122)
- CONDITION INFO: CAII-A647 binding fluorescence, higher = more signal
Each entry below lists one item and its recorded composite z-score value.
OBSERVATION TYPE: composite z-score

1. COc1ccc(NC(=O)O[C@H]2[C@H](OC(=O)c3cc4ccccc4[nH]3)[C@@H](OC(=O)c3cc4ccccc4[nH]3)[C@@H](OC)O[C@@H]2CO)cc1 = 0.541
2. CCCC=C(CCC)[C@@H](NC(=O)OCC(C)C)c1ccccc1 = 0.611
3. COC(=O)c1c2oc(c1C(=O)OC)C(=O)N[C@@H](C(C)C)Cn1cc(nn1)C1(CCCCC1)NC(=O)N[C@H](CO)CC2 = 0.828
4. COCCOC(=O)N1C(=O)[C@@]2(c3cc(C#CC4(O)CCCCCC4)ccc31)[C@H](C(=O)Nc1nc3ccccc3s1)[C@H]1C(=O)O[C@H](c3ccccc3)[C@H](c3ccccc3)N1[C@@H]2c1ccc(OCCO)cc1 = 0.503
5. COc1ccc([Si](C)(C)[C@@H]2[C@@H](CC(=O)N3Cc4ccccc4C[C@H]3CO)O[C@]3(C(=O)N(Cc4cccc(N5CCC5=O)c4)c4ccccc43)[C@H]2C)cc1 = 0.283
6. CO[C@H]1O[C@H](CO)[C@@H](OC(=O)Nc2cccc(F)c2)[C@H](OC(=O)Nc2ccccc2)[C@H]1OC(=O)Nc1ccccc1 = 0.65
